B1: ZNF232 (parent)
chain: HSGEKPFICKECGKAYGWCSELIR

# Variants of: B1
# ASSAY PROCEDURE: protein stability index of a GFP-peptide fusion (GPS, HEK-293T) (PSI 1-6); higher = more stable;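 further: lentivirally expressed fusions sorted by FACS into six bins by GFP to DsRed ratio, PSI derived from sequencing read proportions per bin multiplied by bin number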
# TEST PARAMETERS: c terminus: a fixed tail appended
Output true (1) for protein stability index not less than 2; output false (0) otherwise.

S2D: true (1)
A15G: false (0)
I23D: true (1)
E11R: true (1)
K14V: false (0)
Y16I: true (1)

State whether the measured protein stability index reaches 2, counting equality as reaching it, for E4I false (0)

State whether the measured protein stability index reaches 2, counting equality as reaching it, for G17W true (1)

State whether the measured protein stability index reaches 2, counting equality as reaching it, for L22Y true (1)
